Attribution: patent US9757477B2

- Tested on: interscapular BAT
- assay: Top-down whole-organism NIR fluorescence screening of dyes (ROI1/ROI2 contrast)
- Assay type: in vivo, nude mice
- conditionContext: nude mice, 10 μg/mouse i.v., one hour post-injection, second excitation/emission filter pair
Decide by Ratio No 2 (ROI1/ROI2 average fluorescence intensity): equal to or exceeding 1 means satisfied, less means not satisfied.

chemicalString	class
CC1=C(C)C(C)=[N+]2C1=C(C#N)c1c(C)c(C)c(C)n1[B-]2(F)F	satisfied
CCN1/C(=C/C=C/C=C/C=C/c2oc3ccccc3[n+]2CC)Oc2ccccc21.[I-]	not satisfied
CCN1/C(=C/C=C/C=C/c2oc3ccccc3[n+]2CC)Oc2ccccc21.[I-]	satisfied
O=C(O)c1ccccc1C1=c2cc3c4c(c2Oc2c1cc1c5c2CCCN5CCC1)CCC[N+]=4CCC3.[Cl-]	satisfied

----------
- assay: Excitation and emission wavelengths of BAT imaging agents
- Format: physicochemical

compound	Emission λ / nm
CN(C)c1ccc(/C=C/C2=CC(/C=C/c3ccc(N(C)C)c4ccccc34)=[O+][B-](F)(F)O2)c2ccccc12 [CRANAD-6]	750
F[B-]1(F)OC(/C=C/c2cc3c4c(c2)CCCN4CCC3)=CC(/C=C/c2cc3c4c(c2)CCCN4CCC3)=[O+]1 [CRANAD-29]	700
CN(C)c1ccc(/C=C/C2=CC(=C/C=C3C=CC(=[N+](C)C)C=C3)/O[B-](F)(F)O2)cc1 [CRANAD-2]	680
F[B-]1(F)OC(/C=C/c2c(-c3ccccc3)[nH]c3ccccc23)=CC(/C=C/c2c(-c3ccccc3)[nH]c3ccccc23)=[O+]1 [CRANAD-26]	637
CCN(CC)c1ccc(/C=C/C2=CC(/C=C/c3ccc(N(CC)CC)nc3)=[O+][B-](F)(F)O2)cn1 [CRANAD-3]	660
CN(C)c1ccc(/C=C/C=C/C2=CC(/C=C/C=C/c3ccc(N(C)C)cc3)=[O+][B-](F)(F)O2)cc1 [CRANAD-43]	700

----------
- Test system: interscapular BAT
- assay: Top-down whole-organism NIR fluorescence screening of dyes (ROI1/ROI2 contrast)
- Assay type: in vivo, nude mice
- conditionContext: nude mice, 10 μg/mouse i.v., one hour post-injection, second excitation/emission filter pair
Here, each record is paired with measured Ratio No 2 (ROI1/ROI2 average fluorescence intensity) data.
reportedMetric: Ratio No 2 (ROI1/ROI2 average fluorescence intensity)

chemicalString	assayResult
CCN=c1cc2oc3c4c5c(cc3nc-2c2ccccc12)CCCN5CCC4	1.09E+00
CN(C)c1ccc(/C=C/C2=CC(=C/C=C3C=CC(=[N+](C)C)C=C3)/O[B-](F)(F)O2)cc1	1.26E+00
CC[n+]1c(/C=C/C=C/c2ccc(N(C)C)cc2)ccc2cc(N(C)C)ccc21.[O-][Cl+3]([O-])([O-])[O-]	1.05E+00
CN(C)c1ccc(/C=C/C=C/C2=[N+](C)c3ccccc3C2(C)C)cc1.[O-][Cl+3]([O-])([O-])[O-]	1.08E+00

----------
- Tested on: interscapular BAT
- assay: Top-down whole-organism NIR fluorescence screening of dyes (ROI1/ROI2 contrast)
- Format: in vivo, nude mice
- conditionContext: nude mice, 10 μg/mouse i.v., one hour post-injection, second excitation/emission filter pair
Here, each record is paired with measured Ratio No 2 (ROI1/ROI2 average fluorescence intensity) data.
reportedMetric: Ratio No 2 (ROI1/ROI2 average fluorescence intensity)

chemicalString	systemUnderTest	assayResult
CC[n+]1ccccc1/C=C/C=C/c1ccc(N(C)C)cc1.[O-][Cl+3]([O-])([O-])[O-]	interscapular BAT	1.06E+00
CC[n+]1ccc(C=CC=Cc2ccc(N(C)C)cc2)cc1.[O-][Cl+3]([O-])([O-])[O-]	interscapular BAT	1.14E+00
CN1C(=CC=CC=CC2=[N+](C)c3ccccc3C2(C)C)C(C)(C)c2ccccc21.[I-]	interscapular BAT	1.01E+00
CCN(CC)c1ccc(/C=C/C2=CC(/C=C/c3ccc(N(CC)CC)nc3)=[O+][B-](F)(F)O2)cn1	interscapular BAT	1.33E+00
CN1C(=CC=CC=CC=CC2=[N+](C)c3ccccc3C2(C)C)C(C)(C)c2ccccc21.[I-]	interscapular BAT	1.02E+00
CCN(CC)c1ccc2c(-c3ccccc3C(C)=O)c3ccc(=[N+](CC)CC)cc-3oc2c1	interscapular BAT	1.01E+00
CN1/C(=C/C=C2\CCCC(/C=C/C3=[N+](C)c4ccc5ccccc5c4C3(C)C)=C2Cl)C(C)(C)c2c1ccc1ccccc21.Cc1ccc(S(=O)(=O)[O-])cc1	interscapular BAT	9.91E−01
